Parameter log10 of Kd: see the listing below.
# System Under Test: T1, PUF4 RNA-binding domain (Saccharomyces cerevisiae, UniProt P25339 537-888)
# T1 sequence: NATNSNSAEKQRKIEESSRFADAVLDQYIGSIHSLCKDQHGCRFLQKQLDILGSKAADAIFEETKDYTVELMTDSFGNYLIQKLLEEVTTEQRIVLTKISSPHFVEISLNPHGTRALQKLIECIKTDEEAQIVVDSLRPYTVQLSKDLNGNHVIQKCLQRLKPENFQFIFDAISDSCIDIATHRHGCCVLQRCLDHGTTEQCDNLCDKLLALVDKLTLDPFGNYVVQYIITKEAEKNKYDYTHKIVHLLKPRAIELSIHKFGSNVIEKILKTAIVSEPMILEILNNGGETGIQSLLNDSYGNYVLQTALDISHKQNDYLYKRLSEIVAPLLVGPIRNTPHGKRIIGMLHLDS
# Method Notes: Mg; RNA-MaP; 20 mM Na-HEPES pH 7.4, 30 mM KOAc, 0.75 mM MgCl2, 0.1% Tween-20, 5% glycerol, 0.1 mg/mL BSA, 2 mM DTT; 25 C; 0.0125-409.6 nM protein
# Protocol Conditions: tags: N-His6-TEV cleaved; C-SNAP kept, Cy3B-labelled; label: tethered on chip by stalled RNA polymerase
Assay Metric: log10 of Kd (log10 of the value in nM)

>  <Binder>
Id_ii_S4_P3E.3_K3.2_C3.2_[C-2G]_H3.2_A3.1_F3.1_T3.2_[T9A]_[A10G] (ssRNA) RNA: UUUGACAACUGAUCGUUCUUUCUGUUAUAUAUAAGUUCUUUCUCGAUCAGUUGUCUUU

>  <Reported Measurement>
2.48

$$$$
>  <Binder>
ACAAACGGUAUAUAUAACACAAAC (ssRNA) [Id_ii_S3_P3E.3_K3.2_C3.2_[C-2G]_[T-1G]_H3.2_A3.1_F3.1_T3.2_[T9A]_[A10C]]

>  <Reported Measurement>
2.71

$$$$
>  <Binder>
Ie_S2_P3E.2_K3.1_C3.2_H3.1_[+4C]_A3.1_F3.1_T3.2 (ssRNA) RNA: UUUGAUUAAUAUGAUAUCGUUCUUUCUCUUGUACUAUAUAUUCUUUCUCGAUAUCAUAUUAAUCUUU

>  <Reported Measurement>
-0.30

$$$$
>  <Binder>
UCUCUUUGUAAUUAGUCUCUU (ssRNA) [Ic_S1_P4E.1_K4.1_C4.1_H4.1_A4.1_[T5A]_[A6T]_F4.1_[T8A]_[A9G]_T4.1]

>  <Reported Measurement>
2.10

$$$$
>  <Binder>
Ic_S2_P5E.1_K5.1_C5.1_H5.1_A5.1_[T5A]_F5.1_[T8A]_[A10G]_T5.1 (ssRNA) RNA: UUUGAUUAAUAUGAUAUCGUUCUUUCUUGUAAUAAUGUUCUUUCUCGAUAUCAUAUUAAUCUUU

>  <Reported Measurement>
2.26

$$$$
>  <Binder>
UCUCUUUGUACCAGGUCUCUU (ssRNA) [Ic_S1_P4E.1_K4.1_C4.1_H4.1_A4.1_[T5C]_[A6C]_[T7A]_F4.1_[T8G]_[A9G]_T4.1]

>  <Reported Measurement>
3.25

$$$$
>  <Binder>
Id_ii_S2_P3E.3_K3.2_C3.2_[T-1A]_H3.2_A3.1_F3.1_T3.2_[T9A]_[A10G] (ssRNA) RNA: UUUGAUUAAUAUGAUAUCGUUCUUUCUCAUAUAUAUAAGUUCUUUCUCGAUAUCAUAUUAAUCUUU

>  <Reported Measurement>
3.04

$$$$
>  <Binder>
UCUCUUGUUGUAUUAUUAUUUCUCUU (ssRNA) [Id_ii_S1_P5E.2_K5.1_C5.2_[C-2G]_H5.1_A5.1_F5.1_T5.2_[A12T]]

>  <Reported Measurement>
0.80

$$$$
>  <Binder>
Id_ii_S2_P5E.4_K5.3_C5.2_[C-2A]_H5.3_A5.1_F5.1_T5.2_[T11A]_[A12T] (ssRNA) RNA: UUUGAUUAAUAUGAUAUCGUUCUUUCUAUACACUUAUUAAUUUCUUUCUCGAUAUCAUAUUAAUCUUU

>  <Reported Measurement>
2.11

$$$$
>  <Binder>
Ie_S2_P4E.1_K4.1_C4.1_H4.1_A4.1_[+5CT]_F4.1_T4.1 (ssRNA) RNA: UUUGAUUAAUAUGAUAUCGUUCUUUCUUGUAUCUAUUAUUCUUUCUCGAUAUCAUAUUAAUCUUU

>  <Reported Measurement>
0.76

$$$$
>  <Binder>
Id_ii_S2_P3E.3_K3.2_C3.2_[C-2A]_[T-1A]_H3.2_A3.1_F3.1_T3.2_[T9G]_[A10C] (ssRNA) RNA: UUUGAUUAAUAUGAUAUCGUUCUUUCUAAUAUAUAUAGCUUCUUUCUCGAUAUCAUAUUAAUCUUU

>  <Reported Measurement>
2.85

$$$$
>  <Binder>
UCUCUUCUUGUUCCAUAUAUAUCUCUU (ssRNA) [Ie_S1_P3E.2_K3.1_C3.2_H3.1_[+3TCC]_A3.1_F3.1_T3.2]

>  <Reported Measurement>
1.42

$$$$
>  <Binder>
UCUCUUUGUAUCCUCUUAUUAUCUCUU (ssRNA) [Ie_S1_P5E.1_K5.1_C5.1_H5.1_A5.1_[+5CCTCT]_F5.1_T5.1]

>  <Reported Measurement>
1.48

$$$$
>  <Binder>
Ie_S2_P5E.1_K5.1_C5.1_H5.1_A5.1_[+6CCTCT]_F5.1_T5.1 (ssRNA) RNA: UUUGAUUAAUAUGAUAUCGUUCUUUCUUGUAUUCCUCUAUUAUUCUUUCUCGAUAUCAUAUUAAUCUUU

>  <Reported Measurement>
1.32

$$$$
>  <Binder>
Ic_S4_P4E.1_K4.1_C4.1_H4.1_A4.1_[T5C]_[A6C]_F4.1_[T8A]_[A9T]_T4.1 (ssRNA) RNA: UUUGACAACUGAUCGUUCUUUCUUGUACCUAUUUCUUUCUCGAUCAGUUGUCUUU

>  <Reported Measurement>
1.11

$$$$
>  <Binder>
ACAAACCCUAUAUUAUUAAAACAAAC (ssRNA) [Id_ii_S3_P5E.3_K5.2_C5.2_[T-1C]_H5.2_A5.1_F5.1_T5.2_[T11A]]

>  <Reported Measurement>
2.83

$$$$
>  <Binder>
UCUCUUACUUGUAAUAUUAUAUCUCUU (ssRNA) [Id_iii_S1_P5E.8_K5.4_C5.3_[T-3A]_H5.1_A5.2_F5.1_T5.2]

>  <Reported Measurement>
1.14

$$$$
>  <Binder>
Ib_S4_P4E.1_K4.1_C4.1_H4.1_[A4T]_A4.1_[T5A]_F4.1_T4.1 (ssRNA) RNA: UUUGACAACUGAUCGUUCUUUCUUGUUAAUUAUUCUUUCUCGAUCAGUUGUCUUU

>  <Reported Measurement>
1.13

$$$$
>  <Binder>
Ie_S2_P3E.2_K3.1_C3.2_H3.1_[+1CCCT]_A3.1_F3.1_T3.2 (ssRNA) RNA: UUUGAUUAAUAUGAUAUCGUUCUUUCUCUUCCCUGUAUAUAUAUUCUUUCUCGAUAUCAUAUUAAUCUUU

>  <Reported Measurement>
-0.29

$$$$
>  <Binder>
UCUCUUUGUACCUCGUCUCUU (ssRNA) [Ic_S1_P4E.1_K4.1_C4.1_H4.1_A4.1_[T5C]_[A6C]_F4.1_[T8C]_[A9G]_T4.1]

>  <Reported Measurement>
2.76

$$$$
>  <Binder>
UCUCUUUGUAUUCAGUCUCUU (ssRNA) [Ic_S1_P4E.1_K4.1_C4.1_H4.1_A4.1_[A6T]_[T7C]_F4.1_[T8A]_[A9G]_T4.1]

>  <Reported Measurement>
2.81

$$$$
>  <Binder>
UCUCUUUGUAAAACUCUCUU (ssRNA) [Ic_S1_P3E.1_K3.1_C3.1_H3.1_A3.1_[T5A]_F3.1_[T7A]_[A8C]_T3.1]

>  <Reported Measurement>
2.57

$$$$
>  <Binder>
UCUCUUAUUAUAUAUACAUCUCUU (ssRNA) [Id_ii_S1_P3E.3_K3.2_C3.2_[C-2A]_H3.2_A3.1_F3.1_T3.2_[T9C]]

>  <Reported Measurement>
2.78

$$$$
>  <Binder>
Ic_S2_P4E.1_K4.1_C4.1_H4.1_A4.1_[T5C]_[A6C]_[T7C]_F4.1_[A9C]_T4.1 (ssRNA) RNA: UUUGAUUAAUAUGAUAUCGUUCUUUCUUGUACCCUCUUCUUUCUCGAUAUCAUAUUAAUCUUU

>  <Reported Measurement>
1.39

$$$$
